Hey, just so you know, these numbers are from patent US20250388623A1.

# System: human lung adenocarcinoma A549 cells
# Test: Transwell tumor cell migration, co-culture with PMA-differentiated THP-1 cells
# Assay type: cell-based
# Condition details: 100 μM polypeptide 48 h, co-culture 24 h; negative control group = 100.00
Mark NO for A549 migration Mean (%) values under 60%, and YES for everything at or above.

Ac-Thr-Gln-Asp-Ala-Glu-Asp-NH2 (Ac-TQDAED-NH2) [SEQ ID NO: 04] : NO
Ac-Gln-Asp-Ala-Glu-Asp-Asn-NH2 (Ac-QDAEDN-NH2) [SEQ ID NO: 05] : YES
Ac-TQDAEDN-NH2 [SEQ ID NO: 06, Ac-Thr-Gln-Asp-Ala-Glu-Asp-Asn-NH2] : YES
Ac-TQDPEDNTAS-NH2 [SEQ ID NO: 26] : YES
Ac-TQDAEDPTAS-NH2 [SEQ ID NO: 25] : YES

Field: next substance
Qu. Hi, just wondering whether Ac-TQDAEDNTASH-NH2 [SEQ ID NO: 33] shows A549 migration Mean (%) of 60% or higher.
Ans. YES
